test: Solubility of Form A at 20° C. and 40° C.; assay type: physicochemical; conditions: organic solvent or mixture, thermodynamic from solid; EtOH, 40° C., stirred 2 days
reported_property: solubility at 2 days

compound	reported_property	result
CCCN(CCC)C(=O)C1=Cc2ccc(-c3ccc(C(=O)N4CCCC4)cc3)cc2N=C(N)C1 [Form A]	solubility at 2 days	24 mg/mL

###

assay: Slurry screening, solubility determined by HPLC; type: physicochemical; settings: aqueous with cosolvent or surfactant or cyclodextrin, thermodynamic from solid; slurry stirred 5 days; solvent ac/water 1/2

test_smiles	solubility at 5 days [mg/mL]
CCCN(CCC)C(=O)C1=Cc2ccc(-c3ccc(C(=O)N4CCCC4)cc3)cc2N=C(N)C1	0.48
